assay: Human HepG2 cell viability assay in 384 well format; format: toxicity, cell-based; design: dose 125 nL, time 70.5 hour; concentration not given beside the values; settings: HepG2 cells, read-out: Inhibition
# cytotoxicity at 70.5 h annotations
Please give a number only; it is taken to be in %.

# example entries with known answers
Indicate the recorded cytotoxicity at 70.5 h value for this molecule: CCC(CC)C(=O)N1CCC2(CC1)c1ccccc1[C@@H](OC)[C@@H]2O
-8.24

Indicate the recorded cytotoxicity at 70.5 h value for this molecule: Cc1nc2c(c(NC(C)C)n1)CCN(Cc1cccnc1)CC2
4.65

Indicate the recorded cytotoxicity at 70.5 h value for this molecule: NC(=O)N1CC[C@H](O)[C@@H]1Cc1ccccc1
-8.95

Indicate the recorded cytotoxicity at 70.5 h value for this molecule: COC(=O)CN1Cc2cc3c(cc2NCCC1=O)OCO3
-9.74

Indicate the recorded cytotoxicity at 70.5 h value for this molecule: Cc1ccc(C(C(=O)O)N(C)CCN2CCOCC2)c(F)c1 (stereo unspecified)
-9.66

Indicate the recorded cytotoxicity at 70.5 h value for this molecule: CC(C)c1ncc2c(n1)CN(Cc1noc(-c3ccccc3)n1)CC2
0.861

Indicate the recorded cytotoxicity at 70.5 h value for this molecule: CCC(=O)N1CCC(Cc2ccccc2-c2cccc(C)c2)(C(N)=O)C1 (stereo unspecified)
12.2

Indicate the recorded cytotoxicity at 70.5 h value for this molecule: O=C(CCN1CCN(c2ccc3nncn3n2)CC1)N1CCCCC1
-5.89

Indicate the recorded cytotoxicity at 70.5 h value for this molecule: CC1(Cc2ccc3c(c2)OCO3)CCCN(S(=O)(=O)N2CCOCC2)C1 (stereo unspecified)
-6.32

Indicate the recorded cytotoxicity at 70.5 h value for this molecule: N#Cc1cccc(S(=O)(=O)Nc2c(F)cccc2N2CCCC2)c1
-5.48

Here is another molecule to look at.
Indicate the recorded cytotoxicity at 70.5 h value for this molecule: Cc1nsc(NC(=O)N2CCN(Cc3ccccc3F)C(=O)C2)n1
-8.72

---

experiment: Human HepG2 cell viability assay in 384 well format; assay type: toxicity, cell-based; design: dose 125 nL, time 70.5 hour; concentration not given beside the values; details: HepG2 cells, read-out: Inhibition
# cytotoxicity at 70.5 h annotations
Please give a number only; it is taken to be in %.

# example entries with known answers
Indicate the recorded cytotoxicity at 70.5 h value for this compound: COc1ccccc1NC(=O)CSC1CCc2ccccc2NC1=O (configuration not stated)
-10.1

Indicate the recorded cytotoxicity at 70.5 h value for this compound: O=C(c1ccoc1)N1CCc2c(COCc3ccncc3)cncc2C1
8.95

Indicate the recorded cytotoxicity at 70.5 h value for this compound: O=C(NCC1CCC2(CC1)OCCO2)c1cccc(-n2cccn2)c1
19.6

Here is another compound to look at.
Indicate the recorded cytotoxicity at 70.5 h value for this compound: CC(=O)c1cc(CN2CCCC2c2nc3ccc(C)cc3[nH]2)cs1 (configuration not stated)
-3.73

---

experiment: Human HepG2 cell viability assay in 384 well format; assay type: toxicity, cell-based; parameters: dose 125 nL, time 70.5 hour; concentration not given beside the values; conditions: HepG2 cells, read-out: Inhibition
# cytotoxicity at 70.5 h annotations
Please don't drop the unit; write it after the number.

Indicate the recorded cytotoxicity at 70.5 h value for this compound: O=C(Nc1cccnc1)NC1CCN(c2ccccc2OC(F)F)C1 (configuration not stated)
-3.6%

Indicate the recorded cytotoxicity at 70.5 h value for this compound: CCCN1CC2(CCN(c3ccc(C(C)=O)cn3)CC2)CC1C(=O)O (configuration not stated)
-9.66%

Indicate the recorded cytotoxicity at 70.5 h value for this compound: CC(C)NC(=O)C(C(C)C)n1cnc2cc(F)c(F)cc21 (configuration not stated)
-7.62%

Continuing:
Indicate the recorded cytotoxicity at 70.5 h value for this compound: Cc1ccoc1C(=O)N1CC[C@@H]2O[C@@H](C)C[C@H]2C1
0.684%

Indicate the recorded cytotoxicity at 70.5 h value for this compound: CC1(c2ccccc2)CCC(=O)N(CCN2CCOC2=O)C1 (configuration not stated)
-2.39%
